- Measurement Protocol: recombinant barcode read abundance after kanamycin selection (control-corrected) (log10(CPM+1)); higher = more efficient recombination; sequences stand for … in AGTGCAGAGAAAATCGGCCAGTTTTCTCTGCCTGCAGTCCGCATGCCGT…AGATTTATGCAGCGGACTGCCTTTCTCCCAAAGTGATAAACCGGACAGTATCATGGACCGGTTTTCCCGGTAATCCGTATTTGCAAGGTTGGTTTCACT; site = the 11-nt target
Listing of entries alongside the reported recombinant barcode read abundance (log10).
// keep it numeric: no unit symbol after the value

biosequence="TTCAAATCTTGGGTTCTAACCTGTTGCCT (site TTCAAAGCTAG)" observed_result=0.182

With those in mind, consider the next sequence.
Q. // returns reported recombinant barcode read abundance (log10) for input TTCCTGACTTGGGTTCTAACCTGTTGCCT (site TTCCTGACTAG)
A. 1.69

----------
Collected recombinant barcode read abundance (log10) values appear next to each entry.
- Measurement Protocol: recombinant barcode read abundance after kanamycin selection (control-corrected) (log10(CPM+1)); higher = more efficient recombination; sequences stand for … in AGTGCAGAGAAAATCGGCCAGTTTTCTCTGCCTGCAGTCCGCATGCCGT…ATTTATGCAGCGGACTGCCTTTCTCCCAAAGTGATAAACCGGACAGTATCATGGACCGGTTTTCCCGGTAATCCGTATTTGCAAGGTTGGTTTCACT; site = the 11-nt target
Please state the value as a number alone, without comment.

Sample answers from the record:
biosequence="AGGCGGGTCTGGGTTCTAACCTGTTGCGGGA [AGGCGGGCTCC_LTGcore_TC_RTGcore_TC] (site AGGCGGGCTCC) (LTG core: TC, RTG core: TC)" observed_result=0.156
biosequence="AGTCTTACATGGGTTCTAACCTGTTGCCAAG [AGTCTTACTTG_LTGcore_CA_RTGcore_CT] (site AGTCTTACTTG) (LTG core: CA, RTG core: CT)" observed_result=0.033
biosequence="ATGTCCCCATGGGTTCTAACCTGTTGCTCAG [ATGTCCCCTGA_LTGcore_CA_RTGcore_CT] (site ATGTCCCCTGA) (LTG core: CA, RTG core: CT)" observed_result=0.527
biosequence="ATGCTTTCTTGGGTTCTAACCTGTTGCCTTC [ATGCTTTCTAG_LTGcore_CT_RTGcore_GA] (site ATGCTTTCTAG) (LTG core: CT, RTG core: GA)" observed_result=0.0663
biosequence="TCGCGACCGTGGGTTCTAACCTGTTGCCGAG [TCGCGACCTCG_LTGcore_CG_RTGcore_CT] (site TCGCGACCTCG) (LTG core: CG, RTG core: CT)" observed_result=0.392
biosequence="TAAGAATCGTGGGTTCTAACCTGTTGCCTAG [TAAGAATCTAG_LTGcore_CG_RTGcore_CT] (site TAAGAATCTAG) (LTG core: CG, RTG core: CT)" observed_result=0.349

Q. What value of measured recombinant barcode read abundance (log10) is listed for CGAGCCCACTGGGTTCTAACCTGTTGCTGGT [CGAGCCCCTCA_LTGcore_AC_RTGcore_AC] (site CGAGCCCCTCA) (LTG core: AC, RTG core: AC) ?
A. 0.0238

Q. Which recombinant barcode read abundance (log10) value belongs to GCGCGACCGTGGGTTCTAACCTGTTGCTTCG [GCGCGACCTAA_LTGcore_CG_RTGcore_CG] (site GCGCGACCTAA) (LTG core: CG, RTG core: CG) ?
A. 0.282

Q. Tell me the measured recombinant barcode read abundance (log10) of TAAGAATCTTGGGTTCTAACCTGTTGCCTTG [TAAGAATCTAG_LTGcore_CT_RTGcore_CA] (site TAAGAATCTAG) (LTG core: CT, RTG core: CA) , please.
A. 0.89

Q. What does the data say about its recombinant barcode read abundance (log10)? Entry: GGGCGTGCTTGGGTTCTAACCTGTTGCCTGA [GGGCGTGCTAG_LTGcore_CT_RTGcore_TC] (site GGGCGTGCTAG) (LTG core: CT, RTG core: TC)
A. 1.02

Q. Given the sequence CGGTCCCCTTGGGTTCTAACCTGTTGCCATA [CGGTCCCCTTG_LTGcore_CT_RTGcore_TA] (site CGGTCCCCTTG) (LTG core: CT, RTG core: TA) , what is its reported recombinant barcode read abundance (log10)?
A. 0.222
